Tested on: NCI-H2405
experiment-notes: Cell panel screen (CellTiter-Glo)
Format: cell-based, human
test-conditions: NCI-H2405 (Lung), 20 micromolar, 72 hrs
measured-attribute: Percent Inhibition (%)

[[record]]
molecule = "O=C1CC(c2ccc(O)c(O)c2)Oc2cc(OC3OC(C(=O)O)C(O)C(O)C3O)cc(O)c21 (stereo not shown)"
system_tested = "NCI-H2405"
measured_attribute = "Percent Inhibition"
readout_value = -2

[[record]]
molecule = "O=c1c2cc(O)c(O)cc2oc2cc(O)cc(O)c12"
system_tested = "NCI-H2405"
measured_attribute = "Percent Inhibition"
readout_value = -5

[[record]]
molecule = "COc1cc(O)c2c(=O)c3cc(CC=C(C)C)c(O)c(O)c3oc2c1CC=C(C)C"
system_tested = "NCI-H2405"
measured_attribute = "Percent Inhibition"
readout_value = 50

[[record]]
molecule = "CCOC(=O)C1OC(Oc2cc(O)c3c(c2)OC(c2ccc(O)c(O)c2)CC3=O)C(O)C(O)C1O (stereo not shown)"
system_tested = "NCI-H2405"
measured_attribute = "Percent Inhibition"
readout_value = -3

[[record]]
molecule = "CC(C)=CCc1c(O)cc2oc3cc(O)c(O)c(CCC(C)(C)O)c3c(=O)c2c1O"
system_tested = "NCI-H2405"
measured_attribute = "Percent Inhibition"
readout_value = 73

[[record]]
molecule = "CC(C)=CCCC1(C)C=Cc2c(O)c3c(c(CC=C(C)C)c2O1)OC12C(=CC4CC1C(C)(C)OC2(CC=C(C)C(=O)O)C4=O)C3=O (mixture of isomers) [GB8]"
system_tested = "NCI-H2405"
measured_attribute = "Percent Inhibition"
readout_value = 99

[[record]]
molecule = "CC(C)=CCc1c(O)cc(O)c2c1O[C@]13C(=C[C@@H]4C[C@H]1C(C)(C)O[C@@]3(CC=C(C)C)C4=O)C2=O"
system_tested = "NCI-H2405"
measured_attribute = "Percent Inhibition"
readout_value = 99

[[record]]
molecule = "CCOC1C2C(=O)c3c(O)c4c(c(CC=C(C)C)c3O[C@@]23[C@H]2C[C@@H]1C(=O)[C@]3(C/C=C(/C)C(=O)O)OC2(C)C)OC(C)(CCC=C(C)C)C=C4 (stereo partly shown)"
system_tested = "NCI-H2405"
measured_attribute = "Percent Inhibition"
readout_value = 99

[[record]]
molecule = "COc1c(CC=C(C)C)c(O)c2c(=O)c3ccc(O)c(O)c3oc2c1CC=C(C)C"
system_tested = "NCI-H2405"
measured_attribute = "Percent Inhibition"
readout_value = 93

[[record]]
molecule = "CC1(C)C=Cc2c(cc(O)c3c(=O)c4cc5c(c(O)c4oc23)OC(C)(C)C=C5)O1"
system_tested = "NCI-H2405"
measured_attribute = "Percent Inhibition"
readout_value = 27

[[record]]
molecule = "C=C(C)C(O)Cc1c(O)cc2oc3cc(O)c(O)c(CC=C(C)C)c3c(=O)c2c1O (stereo not shown)"
system_tested = "NCI-H2405"
measured_attribute = "Percent Inhibition"
readout_value = 7

[[record]]
molecule = "COc1ccc2c(=O)c3c(O)cc(O)cc3oc2c1OC"
system_tested = "NCI-H2405"
measured_attribute = "Percent Inhibition"
readout_value = -10

[[record]]
molecule = "COc1cc(O)c2c(=O)c3ccc(O)c(O)c3oc2c1CC=C(C)C"
system_tested = "NCI-H2405"
measured_attribute = "Percent Inhibition"
readout_value = 19

[[record]]
molecule = "O=C1c2c(O)cc(O)cc2OC(c2ccc(O)cc2)C1c1c(O)cc(O)c2c(=O)cc(-c3ccc(O)c(O)c3)oc12 (stereo not shown)"
system_tested = "NCI-H2405"
measured_attribute = "Percent Inhibition"
readout_value = -14

[[record]]
molecule = "CC1(C)C=Cc2cc3c(=O)c4c(O)cc(O)cc4oc3c(O)c2O1"
system_tested = "NCI-H2405"
measured_attribute = "Percent Inhibition"
readout_value = 3

[[record]]
molecule = "O=c1c2ccc(O)c(O)c2oc2cccc(O)c12"
system_tested = "NCI-H2405"
measured_attribute = "Percent Inhibition"
readout_value = -14


----------
Test system: NCI-H2347
experiment-notes: Cell panel screen (CellTiter-Glo)
Format: cell-based, human
test-conditions: Homo sapiens; NCI-H2347 (Lung), 20 micromolar, 72 hrs; read-out: Percent Inhibition
Method: All cells were obtained from the cell bank of the American Type Culture Collection (ATCC) and cultured in the supplier's recommended media supplemented with 10% FBS. The cell panel screen was measured using the CellTiter-Glo assay (Promega, Madison, WI) following a standard protocol. […] The plate was then read on a FlexStation 3 microplate luminometer (Molecular Devices, USA) to monitor the luminescence signal generated by the luciferase-catalyzed reaction of luciferin and ATP. […]
measured-attribute: inhibition at 20 µM (%)

[[record]]
molecule = "CC(C)=CCC[C@@]1(C)C=Cc2c(O)c3c(c(C/C=C(\\C)CO)c2O1)O[C@]12C(=C[C@@H]4C[C@H]1C(C)(C)O[C@@]2(C/C=C(/C)C(=O)O)C4=O)C3=O [GB40, 35-hydroxyepigambogic acid]"
measured_attribute = "inhibition at 20 µM"
readout_value = 98

[[record]]
molecule = "CC(C)=CCC[C@@]1(C)C=Cc2c(O)c3c(c(CCC(C)(C)O)c2O1)O[C@]12C(=C[C@@H]4C[C@H]1C(C)(C)O[C@@]2(C/C=C(/C)C(=O)O)C4=O)C3=O [GB39, 33-hydroxyepigambogic acid]"
measured_attribute = "inhibition at 20 µM"
readout_value = 99

[[record]]
molecule = "CC(C)=CCC/C(C)=C/Cc1c(O)c(CC=C(C)C)c2c(c1O)C(=O)C1=C[C@@H]3C[C@H]4C(C)(C)O[C@@](C/C=C(\\C)C(=O)O)(C3=O)[C@@]14O2"
measured_attribute = "inhibition at 20 µM"
readout_value = 98

[[record]]
molecule = "CC(C)=CCc1c(O)cc2oc3c(CC=C(C)C)c(O)c(O)c(CC=C(C)C)c3c(=O)c2c1O"
measured_attribute = "inhibition at 20 µM"
readout_value = 79

[[record]]
molecule = "CC(C)=CCC/C(C)=C/Cc1c(O)c(CC=C(C)C)c2c(c1O)C(=O)C1=C[C@@H]3C[C@H]4C(C)(C)O[C@@](C/C=C(\\C)C=O)(C3=O)[C@@]14O2"
measured_attribute = "inhibition at 20 µM"
readout_value = 98


----------
Listing of recorded Percent Inhibition by entry.
System: CW-2
experiment-notes: Cell panel screen (CellTiter-Glo)
Assay type: cell-based, human
test-conditions: CW-2 (Colon), 20 micromolar, 72 hrs
measured-attribute: Percent Inhibition (%)

[[record]]
compound = "CCOC(=O)C1OC(Oc2cc(O)c3c(c2)OC(c2ccc(O)c(O)c2)CC3=O)C(O)C(O)C1O (stereo not shown)"
unit_info = "%"
readout_value = 4

[[record]]
compound = "CC(C)=CCc1c2c(c3oc4c(O)c(O)ccc4c(=O)c3c1O)C=CC(C)(C)O2"
unit_info = "%"
readout_value = 5

[[record]]
compound = "O=C1c2c(O)cc(O)cc2OC(c2ccc(O)cc2)C1c1c(O)cc(O)c2c(=O)cc(-c3ccc(O)c(O)c3)oc12 (stereo not shown)"
unit_info = "%"
readout_value = 11

[[record]]
compound = "CC(C)=CCc1c(O)c(O)cc2oc3cc(O)cc(O)c3c(=O)c12"
unit_info = "%"
readout_value = 25


----------
Tested on: M059J
experiment-notes: Cell panel screen (CellTiter-Glo)
Assay type: cell-based, human
test-conditions: Homo sapiens; M059J (Brain), 20 micromolar, 72 hrs; read-out: Percent Inhibition
Description: All cells were obtained from the cell bank of the American Type Culture Collection (ATCC) and cultured in the supplier's recommended media supplemented with 10% FBS. The cell panel screen was measured using the CellTiter-Glo assay (Promega, Madison, WI) following a standard protocol. […] The plate was then read on a FlexStation 3 microplate luminometer (Molecular Devices, USA) to monitor the luminescence signal generated by the luciferase-catalyzed reaction of luciferin and ATP. […]
measured-attribute: inhibition at 20 µM (%)

[[record]]
compound = "CC(C)=CCC/C(C)=C/Cc1c(O)c(CC=C(C)C)c2c(c1O)C(=O)C1=C[C@@H]3C[C@H]4C(C)(C)O[C@@](C/C=C(\\C)C(=O)O)(C3=O)[C@@]14O2"
system_tested = "M059J"
measured_attribute = "inhibition at 20 µM"
readout_value = 99

[[record]]
compound = "CC(C)=CCC/C(C)=C/Cc1c(O)c(CC=C(C)C)c2c(c1O)C(=O)C1=C[C@@H]3C[C@H]4C(C)(C)O[C@@](C/C=C(\\C)C=O)(C3=O)[C@@]14O2"
system_tested = "M059J"
measured_attribute = "inhibition at 20 µM"
readout_value = 99

[[record]]
compound = "CC(C)=CCc1c(O)cc2oc3c(CC=C(C)C)c(O)c(O)c(CC=C(C)C)c3c(=O)c2c1O"
system_tested = "M059J"
measured_attribute = "inhibition at 20 µM"
readout_value = 95

[[record]]
compound = "CC(C)=CCC[C@@]1(C)C=Cc2c(O)c3c(c(CCC(C)(C)O)c2O1)O[C@]12C(=C[C@@H]4C[C@H]1C(C)(C)O[C@@]2(C/C=C(/C)C(=O)O)C4=O)C3=O [GB39, 33-hydroxyepigambogic acid]"
system_tested = "M059J"
measured_attribute = "inhibition at 20 µM"
readout_value = 100

[[record]]
compound = "CC(C)=CCC[C@@]1(C)C=Cc2c(O)c3c(c(C/C=C(\\C)CO)c2O1)O[C@]12C(=C[C@@H]4C[C@H]1C(C)(C)O[C@@]2(C/C=C(/C)C(=O)O)C4=O)C3=O [GB40, 35-hydroxyepigambogic acid]"
system_tested = "M059J"
measured_attribute = "inhibition at 20 µM"
readout_value = 99

